Assay: HepG2 72 h CellTiter-Glo cytotoxicity
Conditions: human, HepG2 cells
Structures can show the parent of a compound that is named as a salt.
assay.endpoint: CC50 at 72 h

Cc1c(-c2ccc(O)cc2)n(Cc2ccc(OCCN3CCCCCC3)cc2)c2ccc(O)cc12 [Bazedoxifene acetate]    3.21 µM
Cc1c(O)cccc1C(=O)N[C@@H](CSc1ccccc1)[C@H](O)CN1C[C@H]2CCCC[C@H]2C[C@H]1C(=O)NC(C)(C)C [Nelfinavir mesylate]    > 39.8 µM
CCCCCCOC(=O)NC(=N)c1ccc(NCc2nc3cc(C(=O)N(CCC(=O)OCC)c4ccccn4)ccc3n2C)cc1 [Dabigatran etexilate mesilate]    13.1 µM
